assay: CARIV-A-001 Part B: cross-over IV infusion over 2 hours vs oral tablet 100 mg/kg in healthy subjects; assay type: in vivo, human; conditions: both sexes, human, plasma, iv, 8 mg/kg, IV, 8 mg/kg, N 10; read-out: HL (Half-life), Mean (converted)
endpoint-label: half-life (h)
Use h as the unit, but write only the number.

Query: half-life; subject: NC(=O)N[C@@H](CCC(=O)O)C(=O)O 30.6

* * *

assay: CARIV-A-001 Part B: cross-over IV infusion over 2 hours vs oral tablet 100 mg/kg in healthy subjects; type: in vivo, human; conditions: both sexes, human, plasma, iv, 12 mg/kg, IV, 12 mg/kg, N 2; read-out: AUCinf, Mean
endpoint-label: AUC(0-inf)
# do not omit the unit; it follows the number

Please give the measured AUC(0-inf) for this molecule: NC(=O)N[C@@H](CCC(=O)O)C(=O)O [carglumic acid, N-carbamoyl-L-glutamic acid] 53800 ng·h/mL

* * *

assay: CARIV-A-001 Part B: cross-over IV infusion over 2 hours vs oral tablet 100 mg/kg in healthy subjects; assay type: in vivo, human; settings: IV, 12 mg/kg, N 2
endpoint-label: Cmax, Min

Query (compound): NC(=O)N[C@@H](CCC(=O)O)C(=O)O [carglumic acid, N-carbamoyl-L-glutamic acid] ; field requested: Cmax, Min 19400 ng/mL

* * *

assay: CARIV-A-001 Part B: cross-over IV infusion over 2 hours vs oral tablet 100 mg/kg in healthy subjects; format: in vivo, human; conditions: both sexes, human, plasma, iv, 12 mg/kg, IV, 12 mg/kg, N 2; read-out: HL (Half-life), Median (converted)
endpoint-label: half-life (h)
Give the quantity in h, number only.

Data request, read-out half-life, for NC(=O)N[C@@H](CCC(=O)O)C(=O)O 34.9

* * *

Test: CARIV-A-001 Part A: single ascending IV doses over 20 minutes in healthy subjects
Assay type: in vivo, human
Details: both sexes, human, plasma and urine, iv, 7.5 mg/kg, IV over 20 minutes, 7.5 mg/kg; read-out: Renal Clearance (RCl), Range
Procedure: This study was conducted in healthy male or female volunteers, at a single site to assess the safety and PK profile of an IV formulation of Carbaglu and to determine the absolute bioavailability of the current marketed oral formulation of Carbaglu. The levels of CGA in plasma and urine were analysed using a fully validated method, which included LC-MS/MS analysis. The PK data were analysed based on a non-compartmental model. […]
endpoint-label: CL renal

What does the record list as CL renal for NC(=O)N[C@@H](CCC(=O)O)C(=O)O [carglumic acid, N-carbamoyl-L-glutamic acid] ? 0.21 to 0.32 L/h/kg

* * *

assay: CARIV-A-001 Part A: single ascending IV doses over 20 minutes in healthy subjects; type: in vivo, human; details: both sexes, human, plasma and urine, iv, 5 mg/kg, IV over 20 minutes, 5.0 mg/kg; read-out: Renal Clearance (RCl), Range
endpoint-label: CL renal

Looking for the measured CL renal of NC(=O)N[C@@H](CCC(=O)O)C(=O)O [carglumic acid, N-carbamoyl-L-glutamic acid] , can you help? 3.17 to 5.17 mL/min/kg

* * *

assay: CARIV-A-001 Part A: single ascending IV doses over 20 minutes in healthy subjects; type: in vivo, human; settings: both sexes, human, plasma and urine, iv, after IV administration; read-out: Renal clearance, median
endpoint-label: CL renal (mL/min)
Reply with just the number (in mL/min).

Return reported CL renal; argument: NC(=O)N[C@@H](CCC(=O)O)C(=O)O [carglumic acid, N-carbamoyl-L-glutamic acid] 265
